procedure details: CCTE_Shafer_MEA_acute_per_network_burst_spike_number_mean: CCTE's Neural Acute Assay for Average Number of Spikes in a Network Burst, Shafer Lab (AID 2284019)
Activity calls are given as the source filed them. The calls were made as follows: active = hit-call score of the fitted dose curve at least 0.9, where 1 is the maximum; inactive = score below 0.9.
Labels: class 1 = active, class 0 = inactive

# compound, class name
rows = [
    ("CN(C)CCC(c1ccc(Cl)cc1)c1ccccn1 (stereo not given)", "class 1"),
    ("CNCCC(Oc1ccc(C(F)(F)F)cc1)c1ccccc1 (stereo not given)", "class 0"),
    ("CCC[Si](OC(C)=O)(OC(C)=O)OC(C)=O", "class 0"),
    ("COc1ccccc1Oc1c(NS(=O)(=O)c2ccc(C(C)(C)C)cc2)nc(-c2ncccn2)nc1OCCO", "class 0"),
    ("CC(C)C1OCCN1CCOC(=O)NCCCCCCNC(=O)OCCN1CCOC1C(C)C (stereo not given)", "class 0"),
    ("NC(N)=Nc1nc(CSCCC(N)=NS(N)(=O)=O)cs1", "class 0"),
    ("CC[N+](CC)(CC(=O)Nc1c(C)cccc1C)Cc1ccccc1 (tested in a mixture with another compound)", "class 0"),
    ("CC1(C)S[C@@H]2[C@H](NC(=O)[C@H](N)c3ccc(O)cc3)C(=O)N2[C@H]1C(=O)O", "class 0"),
    ("COc1cc(CNC(=O)CCCC/C=C/C(C)C)ccc1O", "class 0"),
    ("COc1ccc(C(=O)c2ccccc2O)c(O)c1", "class 0"),
]

====

Read-out: Monokine induced gamma interferon (MIG), CXCL9 (gene 4283)
procedure details: BSK_CASM3C_MIG: BioMAP Diversity Plus: CASM3C Assay for Monokine induced gamma interferon (MIG) Biomarker Activity (AID 2283048);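 also: MIG protein level measured by ELISA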
condition description: primary human coronary artery smooth muscle cells; actives raise or lower the signal
Calls of active or inactive are those of the source. Rule for the calls: active = hit-call score of the fitted dose curve at least 0.9, where 1 is the maximum; inactive = score below 0.9.
Labels: Yes = active, No = inactive

# compound, class name
rows = [
    ("Sc1nc2ccccc2s1", "No"),
    ("CN(C)CCC(c1ccc(Cl)cc1)c1ccccn1 (centres undefined)", "No"),
    ("COC(=O)/C=C\\C(=O)OC", "No"),
    ("COc1ccccc1Oc1c(NS(=O)(=O)c2ccc(C(C)(C)C)cc2)nc(-c2ncccn2)nc1OCCO", "No"),
    ("O=[N+]([O-])c1cc(S(=O)(=O)Nc2ccccc2)ccc1Nc1ccccc1", "No"),
    ("CC[N+](CC)(CC(=O)Nc1c(C)cccc1C)Cc1ccccc1", "No"),
    ("CN(C)c1ccc(C(c2ccccc2)c2ccc(N(C)C)cc2)cc1", "No"),
    ("CC(C)C1OCCN1CCOC(=O)NCCCCCCNC(=O)OCCN1CCOC1C(C)C (centres undefined)", "No"),
    ("Cc1cccnc1", "No"),
    ("CCC[Si](OC(C)=O)(OC(C)=O)OC(C)=O", "No"),
    ("Oc1cccc2ccccc12", "No"),
    ("CCCCCCCCCCCCCCCCCC[N+](C)(C)C", "Yes"),
    ("O=C(C(=O)c1ccccc1)c1ccccc1", "No"),
    ("CCC(C)=NO", "No"),
]

====

Read-out: Monocyte Chemoattractant Protein-1 (MCP1), CCL2 (gene 6347)
procedure details: BSK_LPS_MCP1: BioMAP Diversity Plus: LPS Assay for Monocyte Chemoattractant Protein-1 (MCP1) Biomarker Activity (AID 2283081)
condition description: primary human HUVEC with PBMC; actives raise or lower the signal
Activity calls are given as the source filed them. The calls were made as follows: active = hit-call score of the fitted dose curve at least 0.9, where 1 is the maximum; inactive = score below 0.9.
Labels: label 1 = active, label 0 = inactive

# compound, class name
records = [
    ("CC(C)C1OCCN1CCOC(=O)NCCCCCCNC(=O)OCCN1CCOC1C(C)C (stereo unspecified)", "label 0"),
    ("CC[N+](CC)(CC(=O)Nc1c(C)cccc1C)Cc1ccccc1 (tested in a mixture with another compound)", "label 0"),
    ("COc1cc(CNC(=O)CCCC/C=C/C(C)C)ccc1O", "label 0"),
    ("C1CN(CCOCCN2CCOCC2)CCO1", "label 0"),
    ("COC(=O)/C=C\\C(=O)OC", "label 0"),
    ("CCCCCCC(O)CCCCCCCCCCC(=O)OC (stereo unspecified)", "label 0"),
    ("CN(C)CCC(c1ccc(Cl)cc1)c1ccccn1 (stereo unspecified)", "label 0"),
    ("CC(C)CC(=O)CC(C)CC(C)C (stereo unspecified)", "label 0"),
    ("CCC[Si](OC(C)=O)(OC(C)=O)OC(C)=O", "label 0"),
    ("Sc1nc2ccccc2s1", "label 1"),
    ("Cc1c(C(N)=O)cc([N+](=O)[O-])cc1[N+](=O)[O-]", "label 0"),
    ("CCCCCCCCCCCCCCCCCC[N+](C)(C)C", "label 1"),
    ("COc1ccccc1Oc1c(NS(=O)(=O)c2ccc(C(C)(C)C)cc2)nc(-c2ncccn2)nc1OCCO", "label 0"),
    ("CN(C)c1ccc(C(c2ccccc2)c2ccc(N(C)C)cc2)cc1", "label 1"),
    ("COc1ccc(C(=O)c2ccccc2O)c(O)c1", "label 0"),
    ("Oc1cccc2ccccc12", "label 0"),
]
